Value source: patent USRE40086E1

Listing of recorded Antibacterial activity (MIC) by entry.
Tested on: E. faecalis 12201
experiment: MIC, agar dilution
Type: cell-based
measurementSetup: Enterococcus 12201; Table IA; unit assumed
The answer is to be given in µg/mL; state only the numeric part.

molecule	unitAbbrev	Antibacterial activity (MIC)
CN(C)c1cc(NC(=O)CNCc2ccccc2)c(O)c2c1CC1CC3C(N(C)C)C(O)=C(C(N)=O)C(=O)C3(O)C(O)=C1C2=O.Cl.Cl (stereo not drawn)	µg/mL	0.25
CN(C)CC(=O)Nc1cc(N(C)C)c2c(c1O)C(=O)C1=C(O)[C@]3(O)C(=O)C(C(=O)NCN4CCCCC4)=C(O)[C@@H](N(C)C)C3CC1C2 (stereo partly drawn)	µg/mL	0.12

Now consider a different molecule.
What measured Antibacterial activity (MIC) is associated with CN(C)CC(=O)Nc1cc(N(C)C)c2c(c1O)C(=O)C1=C(O)C3(O)C(=O)C(C(N)=O)=C(O)C(N(C)C)C3CC1C2 (stereo not drawn) on E. faecalis 12201?
0.06
